- target.or.system: UniProtKB P30551
- Sequence (P30551 whole entry): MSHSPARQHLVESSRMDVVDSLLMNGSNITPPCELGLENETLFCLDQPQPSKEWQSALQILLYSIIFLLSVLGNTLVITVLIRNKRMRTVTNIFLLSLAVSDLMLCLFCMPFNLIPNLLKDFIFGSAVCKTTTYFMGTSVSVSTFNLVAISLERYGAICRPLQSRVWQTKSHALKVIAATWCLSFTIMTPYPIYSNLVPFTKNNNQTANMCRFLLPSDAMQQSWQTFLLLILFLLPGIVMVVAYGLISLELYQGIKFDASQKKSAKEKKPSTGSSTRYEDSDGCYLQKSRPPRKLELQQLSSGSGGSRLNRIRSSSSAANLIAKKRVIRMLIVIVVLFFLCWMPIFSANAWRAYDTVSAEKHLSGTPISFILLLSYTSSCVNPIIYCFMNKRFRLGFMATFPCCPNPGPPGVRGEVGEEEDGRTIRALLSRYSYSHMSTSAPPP
- method: Half-maximal inhibition of [125I]CCK-8 binding to cholecystokinin receptor from rat pancreatic tissue
quantity.kind: IC50

Respectfully, I request IC50 for each entry included below.
1. CCOC(=O)CN1C(=O)C(NC(=O)c2ccccc2Cl)N=C(c2ccccc2F)c2ccccc21 (stereo not drawn)
2. CN1C(=O)[C@H](NC(=O)C2CCCCC2)N=C(c2ccccc2)c2ccccc21
3. CCOC(=O)CN1C(=O)C(NC=O)N=C(c2ccccc2)c2ccccc21 (stereo not drawn)

Solution:
> 30 µM
> 10 µM
> 100 µM

###

- target.or.system: Cholecystokinin receptor type A (Rattus norvegicus, UniProt P30551)
- method: Half-maximal inhibition of [125I]CCK-33 binding to cholecystokinin A receptor from rat pancreatic tissue
quantity.kind: pIC50
One number for each entry, as −log10 of the molar value.

>>> reading("O=C(NC1N=C(c2ccccc2)c2ccccc2NC1=O)c1cc2ccccc2[nH]1 (stereo unspecified)")
8.33
>>> reading("O=C(O)CN1C(=O)C(NC(=O)c2ccc(Cl)cc2)N=C(c2ccccc2F)c2ccccc21 (stereo unspecified)")
7.49

Respectfully, I request pIC50 for each entry included below.
1. CCCCCc1ccc(C(=O)NC2N=C(c3ccccc3)c3ccccc3NC2=O)cc1 (stereo unspecified)
2. CN1C(=O)[C@@H](NC(=O)c2ccc(C(F)(F)F)cc2)N=C(c2ccccc2F)c2ccccc21
3. O=C(NC1N=C(c2ccccc2)c2ccccc2NC1=O)c1ccc2ccccc2c1 (stereo unspecified)

Solution:
4.57
7.96
7.70

###

Consider the following compounds; for each one, report its log10 of IC50.
- target.or.system: Cholecystokinin receptor type A (Rattus norvegicus)
- method: Half-maximal inhibition of [125I]CCK-33 binding to cholecystokinin A receptor from rat pancreatic tissue
Please interpret these as log10 of IC50 where IC50 is in nM.

>>> reading("CN1C(=O)C(NC(=O)c2ccc(C(C)(C)C)cc2)N=C(c2ccccc2F)c2ccccc21 (stereo unspecified)")
2.00
>>> reading("O=C(NC1N=C(c2ccccc2F)c2ccccc2NC1=O)c1cc2ccccc2o1 (stereo unspecified)")
0.95
>>> reading("N[C@H](Cc1ccccc1)C(=O)NC1N=C(c2ccccc2)c2ccccc2NC1=O (stereo partly specified)")
3.49
>>> reading("Cn1c(C(=O)NC2N=C(c3ccccc3F)c3ccccc3NC2=O)cc2ccccc21 (stereo unspecified)")
0.67

Now examine the next entry.
Problem: log10 of IC50 lookup needed for Cc1ccc(C(=O)NC2N=C(c3ccccc3F)c3ccccc3NC2=O)cc1 (stereo unspecified) , thanks.
Solution: 1.32

The reported numbers originate from ChEMBL document CHEMBL1124015.
